These data points were gathered from patent US20190076400A1.

biological target: δ-opioid receptor (DOR), Human-ORPD1 (human, UniProt P41143 1-372); assay: cell-based or functional assay
Sequence (P41143 whole entry, stated change not applied): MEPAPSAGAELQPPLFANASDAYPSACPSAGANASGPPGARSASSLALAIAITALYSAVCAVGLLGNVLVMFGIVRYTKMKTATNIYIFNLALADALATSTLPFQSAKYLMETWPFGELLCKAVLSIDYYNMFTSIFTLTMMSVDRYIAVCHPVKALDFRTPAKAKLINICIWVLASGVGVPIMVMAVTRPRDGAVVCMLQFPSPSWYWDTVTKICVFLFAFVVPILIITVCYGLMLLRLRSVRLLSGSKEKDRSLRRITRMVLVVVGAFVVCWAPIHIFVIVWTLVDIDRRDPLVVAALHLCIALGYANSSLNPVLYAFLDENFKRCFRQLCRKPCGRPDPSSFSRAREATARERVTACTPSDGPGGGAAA
Square brackets hold non-standard residues; d marks the D form. Phe(2,6-Me2,4-CONH2) = Cc1cc(C(N)=O)cc(C)c1C[C@H](N)C(=O)O; Dmt = Cc1cc(O)cc(C)c1C[C@H](N)C(=O)O; hPhe = N[C@@H](CCc1ccccc1)C(=O)O; β3hF = N[C@H](CC(=O)O)Cc1ccccc1; Sar = CNCC(=O)O
# maps each entry to its DOR EC50
MEASURE NAME: DOR EC50

BINDER: H-[Dmt][dR][BIP][Sar]-NH2 [H-DMT-r-BIP-Sar-NH2]
MEASURE NAME: DOR EC50
VALUE REPORTED: ≤ 1 nM
--
BINDER: H-[Dmt][dR]FV-NH2 (SMILES Cc1cc(O)cc(C)c1C[C@H](N)C(=O)N[C@H](CCCNC(=N)N)C(=O)N[C@@H](Cc1ccccc1)C(=O)N[C@H](C(N)=O)C(C)C) [H-DMT-r-F-V-NH2]
MEASURE NAME: DOR EC50
VALUE REPORTED: ≤ 10 nM
--
BINDER: H-[Phe(2,6-Me2,4-CONH2)]GG[β3hF][Sar]-NH2 (SMILES Cc1cc(C(N)=O)cc(C)c1C[C@H](N)C(=O)NCC(=O)NCC(=O)N[C@H](CC(=O)N(C)CC(N)=O)Cc1ccccc1) [H-Phe(DMC)-G-G-bhF-Sar-NH2]
MEASURE NAME: DOR EC50
VALUE REPORTED: ≤ 1 nM
--
BINDER: H-[Dmt][dR]F[hPhe]-NH2 (SMILES Cc1cc(O)cc(C)c1C[C@H](N)C(=O)N[C@H](CCCNC(=N)N)C(=O)N[C@@H](Cc1ccccc1)C(=O)N[C@@H](CCc1ccccc1)C(N)=O) [H-DMT-r-F-HomoPhe-NH2]
MEASURE NAME: DOR EC50
VALUE REPORTED: ≤ 10 nM
